Test system: Crude diglycosidase
EXPERIMENT DESCRIPTION: Examination of temperature in the conversion into isoflavone aglycons by diglycosidase using soybean materials
Assay type: biochemical, Penicillium multicolor IAM7153
CONDITION DESCRIPTION: 45° C., heat treatment of enzyme no, reaction time 3 h
ASSAY READOUT: Decomposition efficiency of daidzin family in concentrated soybean protein (%)
Reply numerically in %, unit not repeated.

Would you please look over these solved cases?
O=c1c(-c2ccc(O)cc2)coc2cc(O)ccc12	48.8
CC(=O)OC[C@H]1O[C@@H](Oc2ccc3c(=O)c(-c4ccc(O)cc4)coc3c2)[C@H](O)[C@@H](O)[C@@H]1O	41.5

Consider now this further molecule.
Short answer on Crude diglycosidase for O=c1c(-c2ccc(O)cc2)coc2cc(O[C@@H]3O[C@H](CO)[C@@H](O)[C@H](O)[C@H]3O)ccc12 , Decomposition efficiency of daidzin family in concentrated soybean protein: 9.6

====

System: Crude diglycosidase
EXPERIMENT DESCRIPTION: Examination of pH in the conversion into isoflavone aglycons by diglycosidase using soybean materials
Format: biochemical, Penicillium multicolor IAM7153
CONDITION DESCRIPTION: pH6.6; heat treatment of enzyme: no; reaction time 3 h
ASSAY READOUT: Decomposition efficiency of daidzin family in concentrated soybean protein (%)
The figure you give is taken to be in %; do not add the unit.

CC(=O)OC[C@H]1O[C@@H](Oc2ccc3c(=O)c(-c4ccc(O)cc4)coc3c2)[C@H](O)[C@@H](O)[C@@H]1O	42.9

Decomposition efficiency of daidzin family in concentrated soybean protein recorded for this compound, O=c1c(-c2ccc(O)cc2)coc2cc(O)ccc12 , is 57.1

====

System: Crude diglycosidase
EXPERIMENT DESCRIPTION: Examination of pH in the conversion into isoflavone aglycons by diglycosidase using soybean materials
Format: biochemical, Penicillium multicolor IAM7153
CONDITION DESCRIPTION: pH4.8; heat treatment of enzyme: yes; reaction time 6 h
ASSAY READOUT: Decomposition efficiency of glycitin family in defatted soybean

COc1cc2c(=O)c(-c3ccc(O)cc3)coc2cc1O [glycitein]	43.8%
COc1cc2c(=O)c(-c3ccc(O)cc3)coc2cc1O[C@@H]1O[C@H](COC(C)=O)[C@@H](O)[C@H](O)[C@H]1O [acetylglycitin, 6″-O-acetylglycitin]	not detected
COc1cc2c(=O)c(-c3ccc(O)cc3)coc2cc1O[C@@H]1O[C@H](COC(=O)CC(=O)O)[C@@H](O)[C@H](O)[C@H]1O [malonylglycitin, 6″-O-malonylglycitin]	56.2%
COc1cc2c(=O)c(-c3ccc(O)cc3)coc2cc1O[C@@H]1O[C@H](CO)[C@@H](O)[C@H](O)[C@H]1O [glycitin]	not detected

====

Tested on: β-Glucosidase derived from A. niger
EXPERIMENT DESCRIPTION: Reactivity toward various isoflavone glycosides (HPLC)
Assay type: biochemical, Aspergillus niger
Design: unit not given here
CONDITION DESCRIPTION: Reaction time 1 h; 55 °C, pH 4.0
ASSAY READOUT: glucoside
Just the number, please, no unit after it.

Use the examples below as a reference point.
O=C(O)CC(=O)OC[C@H]1O[C@@H](Oc2cc(O)c3c(=O)c(-c4ccc(O)cc4)coc3c2)[C@H](O)[C@@H](O)[C@@H]1O [malonylgenistin, 6″-O-malonylgenistin]	96.9
O=c1c(-c2ccc(O)cc2)coc2cc(O[C@@H]3O[C@H](CO)[C@@H](O)[C@H](O)[C@H]3O)cc(O)c12 [genistin]	0
CC(=O)OC[C@H]1O[C@@H](Oc2cc(O)c3c(=O)c(-c4ccc(O)cc4)coc3c2)[C@H](O)[C@@H](O)[C@@H]1O [acetylgenistin, 6″-O-acetylgenistin]	98.6
COc1cc2c(=O)c(-c3ccc(O)cc3)coc2cc1O[C@@H]1O[C@H](COC(=O)CC(=O)O)[C@@H](O)[C@H](O)[C@H]1O [malonylglycitin, 6″-O-malonylglycitin]	98.8

// field: glucoside; key: CC(=O)OC[C@H]1O[C@@H](Oc2ccc3c(=O)c(-c4ccc(O)cc4)coc3c2)[C@H](O)[C@@H](O)[C@@H]1O [acetyldaidzin, 6″-O-acetyldaidzin] ; value = 95.6
